Where these numbers come from: paper PMC12416549

- EXPERIMENTAL TARGET: T1, TNFR1 (Homo sapiens, UniProt P19438)
- T1 chain: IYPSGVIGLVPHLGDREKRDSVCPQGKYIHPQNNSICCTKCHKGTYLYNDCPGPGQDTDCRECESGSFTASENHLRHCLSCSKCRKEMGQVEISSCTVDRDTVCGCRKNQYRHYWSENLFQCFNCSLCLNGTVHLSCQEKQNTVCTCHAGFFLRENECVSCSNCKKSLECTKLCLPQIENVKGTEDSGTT
- ASSAY: yeast display SC50
MEASUREMENT LABEL: apparent Kd (screen) (nM)

For orientation, consider the following solved cases.
Item under review: K17R (designed binder) SMEEEVEKAAKEYEKKRKEAIEKHLEKLKAKDKEAAERFLKELEEAAKEYAKDEAKTMSEEEAKRRAKKYKEKVLLSELSEEEQKEIKEAEEKLVRTILKYVEEAAK . Reported apparent Kd (screen)?
0.653

Please look up its apparent Kd (screen): M2S (designed binder) SSEEEVEKAAKEYEKKKKEAIEKHLEKLKAKDKEAAERFLKELEEAAKEYAKDEAKTMSEEEAKRRAKKYKEKVLLSELSEEEQKEIKEAEEKLVRTILKYVEEAAK
0.446

1 = E5G (designed binder) SMEEGVEKAAKEYEKKKKEAIEKHLEKLKAKDKEAAERFLKELEEAAKEYAKDEAKTMSEEEAKRRAKKYKEKVLLSELSEEEQKEIKEAEEKLVRTILKYVEEAAK
2 = E44M (designed binder) SMEEEVEKAAKEYEKKKKEAIEKHLEKLKAKDKEAAERFLKELMEAAKEYAKDEAKTMSEEEAKRRAKKYKEKVLLSELSEEEQKEIKEAEEKLVRTILKYVEEAAK
Lower value for measured apparent Kd (screen)? Options: 1 , 2 Pick one and reply with its label.
1
